Values from patent US20190218277A1

# TARGET: T1, Recombinant soluble E protein (0.8E-His) from DENV-4 (DENV-4, UniProt P09866 280-674)
# T1 construct: also called DENV-4 E protein; DV4
Please respond with reported pKd for every item in the list.
The quantity pKd is defined as the negative base-10 logarithm of the molar concentration.

// query Please look at this binder and report its pKd: DG_3CH955-SG182/3CL-SK1 (antibody, V domains shown) VH: QVQLVQSGPDVEKPGASVKVSCKASGYTFTSNYIHWVRQAPGQGLEWMGVINPRGGSRRSAQKFQGRITMTRDTSTSTVYMELSSLRSEDTAVYYCARGGRALFYDSYTTPRDLGSWWFDPWGQGSLVTVSS VL: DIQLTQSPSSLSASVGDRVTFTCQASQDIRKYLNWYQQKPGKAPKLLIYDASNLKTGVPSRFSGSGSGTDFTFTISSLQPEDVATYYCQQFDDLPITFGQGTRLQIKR
// result 8.11

// query Output measured pKd for this item: DG_3CH955-SG182/3CL563-SK1 (antibody, human IgG1, kappa, V domains shown) VH: QVQLVQSGPDVEKPGASVKVSCKASGYTFTSNYIHWVRQAPGQGLEWMGVINPRGGSRRSAQKFQGRITMTRDTSTSTVYMELSSLRSEDTAVYYCARGGRALFYDSYTTPRDLGSWWFDPWGQGSLVTVSS VL: DIQLTQSPSSLSASVGDRVTFTCQASQDIRQYLNWYQQKPGKAPKLLIYDASNLKFGVPSRFSGSGSGTDFTFTISSLQPEDVATYYCQQFSALPITFGQGTRLQIKR
// result 7.91
